target-desc: Shiga toxin 1 (Stx1) (Escherichia coli O157:H7) (UniProt P08026)
Sequence (P08026 23-315): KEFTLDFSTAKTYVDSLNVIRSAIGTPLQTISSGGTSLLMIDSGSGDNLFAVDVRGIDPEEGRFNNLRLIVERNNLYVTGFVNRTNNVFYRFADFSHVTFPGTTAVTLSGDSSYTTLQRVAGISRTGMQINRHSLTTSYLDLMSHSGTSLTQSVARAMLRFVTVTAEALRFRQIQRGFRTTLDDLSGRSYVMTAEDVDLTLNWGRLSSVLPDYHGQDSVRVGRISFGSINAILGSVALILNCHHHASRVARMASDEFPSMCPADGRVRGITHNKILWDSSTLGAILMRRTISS
procedure-text: cell-based or functional assay
value-type: IC50, Vero cell neutralization assay (nM)
One number for each entry, in nM.

**Query** Please report the recorded IC50, Vero cell neutralization assay for Stx1-A9 (VHH) VHH: QVQLVETGGGLAQAGDSLRLSCVEPGRTLDMYAMGWIRQAPGEEREFVASISGVGGSPRYADSVKGRFTISKDNTKSTIWLQMNSLKPEDTAVYYCAAGGDIYYGGSPQWRGQGTRVTVSS .
**Result** 10

Continue with the next binder.
**Query** Please report the recorded IC50, Vero cell neutralization assay for A5/D10 heterodimer VNA (designed binder) QVQLVESGGGLVQPGGSLRLSCAALEFTLEDYAIAWFRQAPGKEREGVSCISKSGVTKYTDSVKGRFTVARDNAKSTVILQMNNLRPEDTAVYNCAAVRPVFVDSVCTLATRYTYWGEGTQVTVSSAHHSEDPGGGGSGGGGSGGGGSQVQLVETGGLVQAGGSLRLSCAASGVPFSDYTMAWFRQAPGKEREVVARITWRGGGPYYGNSGNGRFAISRDIAKSMVYLHMDSLKPEDTAVYYCAASRLRPALASMASDYDYWGQGTQVSVSSEPKTPKPQ .
**Result** 50

# credit: patent US20140294826A1
